Test system: A549 NSCLC
Assay: NCI tumour cell line growth inhibition, 48 h
endpoint: TGI

O=c1c2cc(-c3ccccc3)cnc2sn1-c1ccc(Br)cc1	> 100 µM
Cc1c(C)n(CCCN2CCN(C)CC2)c2ccc(Oc3cccc(C(=O)N4CCN(CCc5ccc(F)cc5)CC4)c3)cc12	3.62 µM
CSC12c3cc(C)n(-c4ccc([N+](=O)[O-])cc4)c3CC(C)(C)CN1C(=O)C2Oc1ccccc1 (centres undefined)	> 100 µM

Now examine the next entry.
The measured TGI associated with CC1=C(C(=O)OC2CC3CCC2(C)C3(C)C)C2Nc3ccccc3N(C)C2O1 (centres undefined) reads 4.53 µM

====

Test system: UACC-62 melanoma
Test: NCI tumour cell line growth inhibition, 48 h
endpoint: TGI

Check out these entries, answers already filled in.
COc1cccc2c1c1ccc3c(c1n2C)C(=O)C=CC3=O	31.2 µM
COc1cccc(/C=N/n2c(Cc3ccccc3)n[nH]c2=O)c1	> 100 µM
O=C1[C@H]2ON(c3ccccc3)C(c3ccc([N+](=O)[O-])cc3)[C@H]2C(=O)N1c1ccc(Cc2ccc(N3C(=O)[C@@H]4ON(c5ccccc5)C(c5ccc([N+](=O)[O-])cc5)[C@@H]4C3=O)cc2)cc1 (stereo not given in full)	> 100 µM
COc1ccc2c3c1OC1C(F)C=CC4(O)C(C2)NCCC314 (stereo not given)	10.5 µM

Each of the following entries comes with a recorded value; kindly state TGI for each.
1. CCOC1CN=C(Nc2cccc3ccccc23)S1 (stereo not given)
2. COc1ccc(C(=O)C(CN(C)C)CN(C)C)cc1
3. O=C(Nc1ccccc1)c1cc(S(=O)(=O)Nc2n[nH]c(=O)n2-c2ccccc2)c(S)cc1Cl
4. C=CCNC(=O)NCCCCC(NC(C)=O)C(=O)NCc1ccccc1 (stereo not given)

["> 10 µM", "19.4 µM", "> 100 µM", "> 100 µM"]

Each of the following entries comes with a recorded value; kindly state TGI for each.
1. N#CC12C(=O)NC(=O)C1(C#N)C1C=CC2CC1 (stereo not given)
2. COc1ccc(C(=O)C#Cc2cn(C3CC(O)C(CO)O3)c(=O)[nH]c2=O)cc1 (stereo not given)

1. > 100 µM
2. > 100 µM

====

Test system: HL-60(TB) leukemia
Experiment: NCI tumour cell line growth inhibition, 48 h
Kindly state TGI for each of the entries shown.

Check out these entries, answers already filled in.
O=C(CCC(=O)Nc1ccc(Cl)c(Cl)c1)Cc1nc2ccccc2o1	> 100 µM
O=C1Nc2c(ccc(Cl)c2Cl)/C1=C/c1cc(Br)c(O)c(Br)c1	> 23.8 µM
O=C1[C@H]2ON(c3ccccc3)C(c3ccc([N+](=O)[O-])cc3)[C@H]2C(=O)N1c1ccc(Cc2ccc(N3C(=O)[C@@H]4ON(c5ccccc5)C(c5ccc([N+](=O)[O-])cc5)[C@@H]4C3=O)cc2)cc1 (stereo partly drawn)	> 100 µM
CC(=O)c1nc2ccccc2n1C(C)C(=O)c1ccccc1 (stereo not drawn)	> 100 µM
COC(=O)[C@]12CC3C=CC1N(C3)C(CBr)c1c2n(S(=O)(=O)c2ccccc2)c2ccccc12 (stereo partly drawn)	> 100 µM

Each of the following entries comes with a recorded value; kindly state TGI for each.
1. CCCCc1ccc(N=C(N)N)cc1
2. COc1ccc(C(c2ccccc2)(c2ccc(OC)cc2)N2C(=O)NC3C(CCCCC(=O)NCCCCCCOP(OCCC#N)N(C(C)C)C(C)C)SCC32)cc1 (stereo not drawn)
3. Cc1ccc2c(c1)C(=C(C#N)C#N)CCCS2(=O)=O

1: 73.6 µM; 2: 32.1 µM; 3: > 100 µM

====

System: SW-620 colon
Assay: NCI tumour cell line growth inhibition, 48 h
endpoint: TGI

Check out these entries, answers already filled in.
O=C(O)c1cc(-c2ccc3cc4c(cc3c2)OCO4)nc2ccccc12	> 100 µM
O=C(NCCCCN1CCOCC1)c1cc2ccccc2o1	> 100 µM

Each of the following entries comes with a recorded value; kindly state TGI for each.
1. COc1ccc2c(c1)Cc1c(NCCN(C)C)ccc(C(=O)NCCCN(C)CCCNC(=O)c3ccc(NCCN(C)C)c4c3Nc3ccc(OC)cc3C4)c1N2
2. Cc1nc2sccn2c1C(=O)NN
3. Cc1ccc2c(c1)SC1=Nc3sc4cc(C)ccc4[n+]3CN12

1. 8.65 µM
2. > 100 µM
3. 53.1 µM

====

Tested on: SW-620 colon
Experiment: NCI tumour cell line growth inhibition, 48 h
Kindly state TGI for each of the entries shown.

Check out these entries, answers already filled in.
O=C(/C=C\c1ccccc1O)c1ccc(O)cc1O	22.7 µM
CCOC(=O)c1nc2cc(C(F)(F)F)ccc2nc1Oc1ccc(C#N)cc1	> 100 µM
O=C(CN(/C=C/C(=O)C(F)(F)F)c1ccc(Cl)cc1)c1ccc(Cl)cc1	23.7 µM
Cc1cnc2ccc(C)c([N+](=O)[O-])c2c1NCCCN(C)C	> 100 µM
Cc1ccc(O)c(C(c2cccc(C(c3cc(C)ccc3O)c3cc(C)ccc3O)c2)c2cc(C)ccc2O)c1	3.2 µM
CCOC(=O)c1cc(C(=O)c2ccc(OC)cc2)n2ccc(/C=C/c3cc[n+](CC(=O)c4ccc(OC)cc4)cc3)cc12	4.02 µM
C[C@@H](Oc1cc(-n2cnc3ccc(OC4CCN(C)CC4)cc32)sc1C(N)=O)c1ccccc1Cl	3.48 µM
OC12c3ccccc3C1CCCCC2N1CCCC1 (centres undefined)	> 100 µM
COc1cc2c(c(OC)c1OC)-c1ccc(OC)c(=O)cc1C(NC(=O)COc1ccccc1)CC2 (centres undefined)	> 95.2 µM
COc1cc(/C=C/c2cc(/C=C/c3ccc(O)c(OC)c3)n(C(=O)c3ccc(Cl)cc3)n2)ccc1O	13.8 µM

Each of the following entries comes with a recorded value; kindly state TGI for each.
1. COc1ccc(C(CC2(c3ccc(OC)cc3)SCCCS2)NC(C)=O)cc1 (centres undefined)
2. CC[C@]12C=CCN3CC[C@@]4(c5cc(N=O)c(OC)cc5N(C)[C@H]4[C@@](O)(C(=O)OC)[C@@H]1OC(C)=O)[C@@H]32
3. COc1ccc2ncn(-c3cc(O[C@H](C)c4ccccc4C(F)(F)F)c(C(N)=O)s3)c2c1
4. N#C/C(=C\c1cc(O)cc(O)c1)C(N)=O
5. COc1cc(OC)cc(OCc2nc3cc(C(F)(F)F)ccc3nc2-c2ccccc2)c1
6. CC(C)(C)[Si](OC1CCOC1=O)(c1ccccc1)c1ccccc1 (centres undefined)
7. CN1C(=O)C2(C)SC1(c1ccccc1)C1C(=O)N(c3ccccc3)C(=O)C12 (centres undefined)

["> 100 µM", "> 100 µM", "6.01 µM", "> 100 µM", "> 100 µM", "> 100 µM", "> 100 µM"]

Each of the following entries comes with a recorded value; kindly state TGI for each.
1. C[C@@H]1C[C@H]2[C@@H]3CCC4=CC(=O)C=C[C@]4(C)[C@@]3(F)[C@@H](O)C[C@]2(C)[C@@]1(O)C(=O)CO
2. Cc1onc(-c2ccccc2)c1C(=O)N/N=C/c1cc(Cl)cc(Cl)c1O

["> 100 µM", "> 100 µM"]

====

System: A549 NSCLC
Experiment: NCI tumour cell line growth inhibition, 48 h
endpoint: TGI

Check out these entries, answers already filled in.
CC(C)CC(NC(=O)C(C)(CI)Cc1ccccc1)C(=O)Nc1ccccc1 (stereo not drawn)	> 100 µM
Cc1ccc(CC(Cc2ccccc2C)C(=O)O)c(C(=O)O)c1 (stereo not drawn)	> 100 µM

Each of the following entries comes with a recorded value; kindly state TGI for each.
1. C=C[C@@H](C)[C@]1(C(=O)OC)CCCC12OCCO2
2. O=C1NC(=C(Cl)Cl)/C(=N/S(=O)(=O)N2CCCCC2)N1
3. Cc1cc(S(=O)(=O)Nc2n[nH]c(-c3ccc(Cl)cc3)n2)c(SSc2cc(Cl)c(C)cc2S(=O)(=O)Nc2n[nH]c(-c3ccc(Cl)cc3)n2)cc1Cl
4. Cc1cc2nc(NCCN)n(Cc3ccc(F)c(Cl)c3)c2cc1C

1. > 100 µM
2. 22.2 µM
3. > 100 µM
4. 32.2 µM

====

Tested on: SF-268 CNS
Experiment: NCI tumour cell line growth inhibition, 48 h
Kindly state TGI for each of the entries shown.

Check out these entries, answers already filled in.
Cc1nn(CNc2ccccc2C(F)(F)F)c(=S)n1/N=C/c1cccc2cccnc12	> 100 µM
N#CC(c1ccccc1)N(CCCCCCN(C(=O)c1ccccc1)C(C#N)c1ccccc1)C(=O)c1ccccc1 (stereo not drawn)	> 100 µM

Each of the following entries comes with a recorded value; kindly state TGI for each.
1. CC(=O)Oc1ccccc1
2. Oc1c(Cl)cc(Cl)c(Cl)c1CNCCNCc1c(O)c(Cl)cc(Cl)c1Cl
3. COc1cc2c(cc1OC(C)C)[C@H](c1ccc(Cl)cc1)N(c1ccc(N(C)CC3CCC(N4CCN(C)C(=O)C4)CC3)cc1)C(=O)C2 (stereo partly drawn)

["> 100 µM", "12.1 µM", "8.72 µM"]

Each of the following entries comes with a recorded value; kindly state TGI for each.
1. CC(C)(C)C(=O)OCOP(=O)(NCc1ccccc1)C1CCCN(O)C1=O (stereo not drawn)
2. CC1=NN(c2cccc(Cl)c2)C2(SCC(=O)N2c2nc3ccccc3s2)C1=CC=Cc1ccccc1 (stereo not drawn)

1. > 100 µM
2. 93.5 µM

Each of the following entries comes with a recorded value; kindly state TGI for each.
1. N#C/C(=C\c1cc(O)cc(O)c1)C(N)=O
2. COc1cc(/C=C2\C(=O)N(C(=O)Cc3ccccc3)N=C2C)cc(OC)c1OC

> 100 µM
> 100 µM

Each of the following entries comes with a recorded value; kindly state TGI for each.
1. COc1ccc2ncn(-c3cc(O[C@H](C)c4ccccc4C(F)(F)F)c(C(N)=O)s3)c2c1
2. COc1ccc(C2SC(N)=Nc3c2c(C)nn3C(=O)c2ccccc2O)cc1OC (stereo not drawn)
3. Cc1c(-c2cnccn2)ssc1=S
4. O=C(CCC(=O)Nc1ccc(Cl)c(Cl)c1)Cc1nc2ccccc2o1
5. COc1ccc(C(CC2(c3ccc(OC)cc3)SCCCS2)NC(C)=O)cc1 (stereo not drawn)
6. Cc1ccc2c(=O)cc(-c3sccc3C)[nH]c2n1
7. O=c1c2cc(-c3ccccc3)cnc2sn1-c1ccc(Br)cc1

8.95 µM
> 10 µM
99 µM
> 100 µM
> 100 µM
> 56.4 µM
> 100 µM

Each of the following entries comes with a recorded value; kindly state TGI for each.
1. CC(C)[N+]([O-])(CCCNc1c2ccccc2nc2cccc([N+](=O)[O-])c12)C(C)C
2. CCOC1CN=C(Nc2cccc3ccccc23)S1 (stereo not drawn)
3. CC(C)C[C@H](NC(=O)CNC(=O)c1cc(Cl)ccc1Cl)B(O)O
4. CCOCCOCCOCc1nc(C#N)c(N)o1
5. CCOC(=O)C1(C#N)OC(=O)c2cnccc21 (stereo not drawn)
6. O=C1N[C@@H]2[C@@H](O)[C@@H](O)[C@H](O)C[C@H]2c2cc3c(c(O)c21)OCCO3

1: 3.14 µM; 2: > 10 µM; 3: 0.22 µM; 4: > 100 µM; 5: > 100 µM; 6: 1.08 µM

The measured TGI associated with CN1C(=O)C2(C)SC1(c1ccccc1)C1C(=O)N(c3ccccc3)C(=O)C12 (stereo not drawn) reads > 100 µM

Origin of the recorded values: PubChem BioAssay (NCI)
